Attribution: patent US10112929B2

Target entity: ROCK2 (Homo sapiens (Human))
Method notes: biochemical
pIC50: −log10 of the molar value. Structures can show the parent of a compound that is named as a salt.
Assay endpoint: pIC50

COc1cc(F)ccc1NC1CCN(c2ccc(-c3cn[nH]c3)c(OC)c2)C1=O (single isomer, unassigned)    5.66 to 7.00
COc1nc(N2CCC(N3CCC(F)(F)C3)C2=O)ccc1-c1cn[nH]c1 (racemic) [Example 284, hydrochloride]    5.66 to 7.00
COc1cc(NC2CCN(c3ccc(-c4cn[nH]c4)cc3)C2=O)ccc1F (single isomer, unassigned) [Example 17]    7.00 to 8.00

Q: Field: pIC50 (ROCK2 (Homo sapiens (Human))). Entry: COc1cccc(NC2CCN(c3ccc(-c4c[nH]nc4C)c(OC)n3)C2=O)c1 (racemic)
A: > 8.00

---

Target entity: ROCK2 (Homo sapiens (Human), UniProt O75116)
Sequence (O75116 whole entry, species assumed): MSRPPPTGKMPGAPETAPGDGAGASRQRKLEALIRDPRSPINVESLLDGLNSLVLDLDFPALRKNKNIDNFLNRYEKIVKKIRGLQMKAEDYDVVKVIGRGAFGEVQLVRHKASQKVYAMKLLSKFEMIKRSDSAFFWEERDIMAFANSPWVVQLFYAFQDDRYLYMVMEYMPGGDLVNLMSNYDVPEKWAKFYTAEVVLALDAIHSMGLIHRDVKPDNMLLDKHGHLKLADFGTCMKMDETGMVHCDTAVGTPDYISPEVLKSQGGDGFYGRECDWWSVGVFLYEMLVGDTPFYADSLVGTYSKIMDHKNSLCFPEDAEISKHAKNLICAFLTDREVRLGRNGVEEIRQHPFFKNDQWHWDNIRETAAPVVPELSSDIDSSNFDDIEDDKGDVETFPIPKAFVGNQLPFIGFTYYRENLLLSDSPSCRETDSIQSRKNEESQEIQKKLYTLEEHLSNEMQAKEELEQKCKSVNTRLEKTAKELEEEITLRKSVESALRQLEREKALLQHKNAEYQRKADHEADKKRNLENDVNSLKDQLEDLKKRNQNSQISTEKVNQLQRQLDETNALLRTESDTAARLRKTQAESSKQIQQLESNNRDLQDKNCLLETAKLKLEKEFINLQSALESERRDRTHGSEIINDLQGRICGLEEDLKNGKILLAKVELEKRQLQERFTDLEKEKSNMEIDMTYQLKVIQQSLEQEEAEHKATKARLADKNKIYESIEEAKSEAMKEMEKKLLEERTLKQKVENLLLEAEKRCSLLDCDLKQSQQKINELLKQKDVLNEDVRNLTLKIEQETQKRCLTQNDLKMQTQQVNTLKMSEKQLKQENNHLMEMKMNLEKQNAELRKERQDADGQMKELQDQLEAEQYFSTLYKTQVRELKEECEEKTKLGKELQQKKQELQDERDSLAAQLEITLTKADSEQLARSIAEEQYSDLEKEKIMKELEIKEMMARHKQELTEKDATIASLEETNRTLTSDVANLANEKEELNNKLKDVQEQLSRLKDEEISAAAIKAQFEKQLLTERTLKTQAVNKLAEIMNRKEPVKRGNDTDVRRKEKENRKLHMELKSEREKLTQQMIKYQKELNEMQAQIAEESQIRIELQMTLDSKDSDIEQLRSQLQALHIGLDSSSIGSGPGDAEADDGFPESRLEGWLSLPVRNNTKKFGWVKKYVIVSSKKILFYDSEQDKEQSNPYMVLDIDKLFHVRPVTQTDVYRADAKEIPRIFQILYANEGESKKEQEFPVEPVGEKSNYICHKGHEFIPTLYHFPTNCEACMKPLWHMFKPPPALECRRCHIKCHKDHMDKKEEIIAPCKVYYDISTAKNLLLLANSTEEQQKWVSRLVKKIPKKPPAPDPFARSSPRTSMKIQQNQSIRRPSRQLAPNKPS
Method notes: biochemical
pIC50: −log10 of the molar value. Structures can show the parent of a compound that is named as a salt.
# pIC50 listing for each entry below

The following compounds have reported results that may help.
COc1c(F)cccc1NC1CCN(c2ccc(-c3cn[nH]c3)cc2)C1=O (single isomer, unassigned) [Example 16]    5.66 to 7.00
CN(C)c1cccc(N[C@@H]2CCN(c3ccc(-c4cn[nH]c4)cc3)C2=O)c1    5.66 to 7.00
COc1nc(N2CCC(N3CC[C@H](F)C3)C2=O)ccc1-c1cn[nH]c1 (mixture of isomers) [Example 290, hydrochloride]    5.66 to 7.00
COc1cc(NC2CCN(c3ccc(-c4cn[nH]c4)c(OC)c3)C2=O)cc(OC)c1 (single isomer, unassigned)    5.66 to 7.00
O=C1C(Nc2nc3ccccc3[nH]2)CCN1c1ccc(-c2cn[nH]c2)cc1 (single isomer, unassigned) [Example 55]    5.66 to 7.00
COc1ccc(F)c(OC2CCN(c3ccc(-c4cn[nH]c4)cc3)C2=O)c1 (stereo not shown)    7.00 to 8.00
CCc1cc(N2CCC(Nc3cccc(OC)c3)C2=O)ncc1-c1cn[nH]c1 (single isomer, unassigned)    5.66 to 7.00
COc1c(F)cccc1NC1CCN(c2ccc(-c3cn[nH]c3)cn2)C1=O (single isomer, unassigned) [Example 90]    5.66 to 7.00

Q: Given the entry COc1ccc(C(N)=O)c(NC2CCN(c3ccc(-c4cn[nH]c4)cc3)C2=O)c1 (racemic) , report its measured pIC50.
A: 5.66 to 7.00

Q: Requested field: pIC50. Item: COc1nc(N2CCC(Nc3cccc(C#N)c3)C2=O)ccc1-c1cn[nH]c1 (racemic)
A: > 8.00

Q: Form field: reported pIC50 of COc1cc(N2CCC(Nc3ccccc3)C2=O)ccc1-c1cn[nH]c1 (stereo not shown)
A: > 8.00

Q: Value lookup for pIC50; key = O=C1C(Nc2ccc3c(c2)OC(F)(F)O3)CCN1c1ccc(-c2cn[nH]c2)cc1 (single isomer, unassigned)
A: 5.66 to 7.00

Q: Need pIC50 of COc1cc(F)cc(NC2CCN(c3ccc(-c4cn[nH]c4)c(F)c3)C2=O)c1 (single isomer, unassigned) , thanks.
A: > 8.00

---

Target entity: ROCK2 (Homo sapiens (Human), UniProt O75116);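 also: rho kinase enzyme reaction halted with EDTA, phospho- and non-phospho peptide separated for read-out, kinase activity inhibition derived across a dose-response series, DMSO under 2%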
Method notes: biochemical
Assay endpoint: IC50

Here are 3 compounds together with their reported answers.
COc1cccc(OC2CCN(c3ccc(-c4ccc5[nH]ncc5c4)c(OC)n3)C2=O)c1 (single isomer, unassigned) [Example 123]    100 to 2200 nM
COc1cccc(NC2CCN(c3ncc(-c4cn[nH]c4)c(OC)n3)C2=O)c1 (stereo not drawn) [Example 132]    10 to 100 nM
CCc1cc(N2CCC(Nc3cc(F)cc(OC)c3)C2=O)ccc1-c1cn[nH]c1 (single isomer, unassigned) [Example 246]    < 10 nM

Q: Recorded IC50 of COc1cc(NC2CCN(c3cc(C)c(-c4cn[nH]c4)cn3)C2=O)ccc1F (single isomer, unassigned) [Example 209] , please.
A: 100 to 2200 nM

Q: Entry CNc1nc(N2CCC(Nc3cc(F)cc(OC)c3)C2=O)ccc1-c1cn[nH]c1 (single isomer, unassigned) [Example 252] has what IC50?
A: < 10 nM

Q: Look up IC50 for this compound: COc1nc(N2CCC(Nc3nc(C(C)(C)C)cs3)C2=O)ccc1-c1cn[nH]c1 (racemic) [Example 269]
A: 100 to 2200 nM
